Assay: gradient 5% acetonitrile 3 min, to 50% in 2 min, to 85% in 15 min, held 3 min, 100 µL/min
Conditions: column: Zorbax Extend-C18 2.1 x 50 mm; eluents: water / acetonitrile, 0.1% formic acid
recorded.endpoint: RP-LC retention time (s)

The following compounds have reported results that may help.
compound	value.units	RP-LC retention time
Cc1sc2ccn(C)c(=O)c2c1C(=O)NCc1ccc(N2CCOCC2)cc1	s	647
CCOc1ccc(C(=O)NCc2c(C)noc2C)cc1OCC	s	757
CC(Oc1cccc(Cl)c1)C(=O)Nc1ccc2c(c1)Sc1ncccc1C(=O)N2C (stereo not given)	s	911

[P] COc1ccccc1-c1noc(-c2nc(-c3ccc4c(c3)OCO4)no2)n1
[Q] CC1CCN(CCNC(=O)c2nnc(-c3ccc(S(=O)(=O)N4CCCC4)cc3)o2)CC1
Could you please tell me which of these two has the higher RP-LC retention time: P or Q ? // return label of chosen record
P
(P: 1120 s, Q: 634 s)

* * *

Assay: gradient 5% acetonitrile 3 min, to 50% in 2 min, to 85% in 15 min, held 3 min, 100 µL/min
Details: column: Zorbax Extend-C18 2.1 x 50 mm; eluents: water / acetonitrile, 0.1% formic acid
recorded.endpoint: RP-LC retention time (s)

molecule	recorded.endpoint	value.units	meas.value
COc1ccccc1NS(=O)(=O)c1cc2n(c1)CCN(CC(C)C)C2=O	RP-LC retention time	s	798
Cc1ccccc1Cn1ccnc1C(=O)N1CCNC(=O)C1	RP-LC retention time	s	616
O=C(Nc1ccc(Br)cc1F)N1CCc2nc[nH]c2C1	RP-LC retention time	s	593
COc1ccc(OC)c(CNC(=O)c2cc(-c3ccccc3)cn2C)c1	RP-LC retention time	s	1020
Cc1cc(=O)n(CC(=O)N2CCCc3ccccc32)c(N2CCOCC2)n1	RP-LC retention time	s	687
O=C(O)c1ccccc1C(=O)Nc1cccc([N+](=O)[O-])c1	RP-LC retention time	s	776

[a] O=C1C(N2CCCN(S(=O)(=O)c3cccc(Cl)c3)CC2)CCN1Cc1ccccc1 (stereo not given)
[b] COc1ccc(-c2noc(-c3nnn4c3COC(c3ccc(Cl)cc3)C4)n2)cc1F (stereo not given)
For the pair a and b , which entry has the numerically smaller recorded RP-LC retention time? // return label of chosen record
a

[A] CC1=C(c2ccc(F)cc2)S(=O)(=O)N=C1N1CCCN(C(=O)NC2CCCC2)CC1
[B] CSc1ccc(-c2noc(Cn3cnc4c(cnn4-c4ccc(C)c(Cl)c4)c3=O)n2)cc1
Could you please tell me which of these two has the higher RP-LC retention time: A or B ? // return label of chosen record
B

[P] COc1ccc(CNC(=O)C2(C)CCCN(S(=O)(=O)c3ccc(Br)cc3)C2)cc1 (stereo not given)
[Q] CC(C)CNC(=O)CC1=C2CCCCC2NC1=O (stereo not given)
Could you please tell me which of these two has the higher RP-LC retention time: P or Q ? // return label of chosen record
P
(P: 1020 s, Q: 644 s)

* * *

Assay: gradient 5% acetonitrile 3 min, to 50% in 2 min, to 85% in 15 min, held 3 min, 100 µL/min
Details: column: Zorbax Extend-C18 2.1 x 50 mm; eluents: water / acetonitrile, 0.1% formic acid
recorded.endpoint: RP-LC retention time (s)

The following compounds have reported results that may help.
compound	value.units	RP-LC retention time
Cc1nnc(-c2ccc3ccn(CC(=O)Nc4nccs4)c3c2)o1	s	707
CCn1cc(CCNC(=O)Nc2cc(C)ccc2C)c2cccnc21	s	723
Cn1c(-c2ccccc2)nn(CCNC(=O)c2cc3ccccc3o2)c1=O	s	694

[P] Cc1cc(C)nc(N2CCC(NC(=O)c3cccc4nccnc34)CC2)n1
[Q] Cc1cc(C)cc(N2CCC(NC(=O)c3ccc(Cl)s3)C2=O)c1 (stereo not given)
For the pair P and Q , which entry has the numerically smaller recorded RP-LC retention time? // return label of chosen record
P
(P: 650 s, Q: 956 s)

* * *

Assay: gradient 5% acetonitrile 3 min, to 50% in 2 min, to 85% in 15 min, held 3 min, 100 µL/min
Details: column: Zorbax Extend-C18 2.1 x 50 mm; eluents: water / acetonitrile, 0.1% formic acid
recorded.endpoint: RP-LC retention time (s)

molecule	RP-LC retention time / s
COCc1cc(=O)n(CC(=O)Nc2ccc(F)cc2)c(N2CCOCC2)n1	797
Cc1cc(C)cc(Nc2nc(C)cc3nn(CC(=O)NC(C)C)c(=O)n23)c1	949
C=CCn1c(=O)c(=O)n(Cc2ccc(C(=O)N3CCN(c4ncccn4)CC3)cc2)c2ccccc21	722
C[C@H]1CN(C(=O)C2CCCC2)C[C@@H]1c1nc(-c2ccccc2)no1	1060
CCN1CCN(C2=NCCN2C(=O)c2ccccc2Br)CC1	898

[A] CCOC(=O)C1CCN(C(=O)C2COC3(CCCCC3)N2C(=O)c2cccc(Cl)c2)CC1 (stereo not drawn)
[B] CC(=O)Nc1ccc(-n2c(C)nc3ccccc3c2=O)cc1C
For the pair A and B , which entry has the numerically smaller recorded RP-LC retention time? // return label of chosen record
B
(B: 621 s, A: 958 s)

* * *

Assay: gradient 5% acetonitrile 3 min, to 50% in 2 min, to 85% in 15 min, held 3 min, 100 µL/min
Conditions: column: Zorbax Extend-C18 2.1 x 50 mm; eluents: water / acetonitrile, 0.1% formic acid
recorded.endpoint: RP-LC retention time (s)

The following compounds have reported results that may help.
compound	value.units	RP-LC retention time
Cn1cc2c3c(cccc31)CN(C(=O)Cc1ccc(Cl)cc1)CC2	s	986
CN(CC#N)C(=O)c1ccc2c(c1)CCN2C(=O)C1CC1	s	680
O=C(Nc1cnc(-c2ccc(F)cc2)nc1)C1CC1	s	829
O=C(Nc1ccc2c(c1)OCO2)C1CCCN(c2ccnc(-c3ccc(F)cc3)n2)C1 (centres undefined)	s	674
Cc1cc(-c2nnc(-c3ccc(F)cc3)o2)c(C)n1CC(=O)Nc1ccc(F)cc1	s	964

[P] CCN1c2ccc(Cl)cc2C(=O)NC12CCN(C(=O)Nc1cccc(OC)c1)CC2
[Q] CCOC(=O)c1cnc(N2CCN(c3ccccc3F)CC2)c2ccccc12
Could you please tell me which of these two has the higher RP-LC retention time: P or Q ? // return label of chosen record
Q
(Q: 1350 s, P: 852 s)

[P] COc1ccc(NC(=O)N2C[C@H]3C[C@H](C2)[C@H]2CCCC(=O)N2C3)cc1
[Q] O=C(NCCCCCCCCNC(=O)c1cccc2ccccc12)c1cccc2ccccc12
For the pair P and Q , which entry has the numerically smaller recorded RP-LC retention time? // return label of chosen record
P

* * *

Assay: gradient 5% acetonitrile 3 min, to 50% in 2 min, to 85% in 15 min, held 3 min, 100 µL/min
Conditions: column: Zorbax Extend-C18 2.1 x 50 mm; eluents: water / acetonitrile, 0.1% formic acid
recorded.endpoint: RP-LC retention time (s)

compound	RP-LC retention time / s
O=C(c1ccc2c(c1)OCO2)N1CCN(c2cc(-c3ccccc3)[nH]n2)CC1	733
Cc1ccc(F)cc1S(=O)(=O)N1CCC2(C1)C(=O)Nc1ccccc12 (centres undefined)	866
O=C(Nc1ccc(S(=O)(=O)N2CCCCC2c2cccnc2)cc1)c1ccccc1F (centres undefined)	617
Cc1ccc(C(=O)N2CCCn3cc(-c4cccc(C#N)c4)nc32)cn1	636
Cc1ccc(-c2nc(N3CCSCC3)ncc2C(=O)O)cc1	918
Cc1cccc(-c2ncccc2CNS(=O)(=O)c2cccc(C)c2)c1	721
Cc1ccc(-c2cc(C(F)(F)F)on2)cc1S(=O)(=O)N1CCN(c2ccccn2)CC1	868
CCOc1ccc(N2C(=O)C3N=NN(Cc4nc(-c5cccc(Br)c5)no4)C3C2=O)cc1 (centres undefined)	1080
O=C(Cc1ccccc1Br)N1CCN(c2cc(-c3ccc(F)cc3)[nH]n2)CC1	867

* * *

Assay: gradient 5% acetonitrile 3 min, to 50% in 2 min, to 85% in 15 min, held 3 min, 100 µL/min
Settings: column: Zorbax Extend-C18 2.1 x 50 mm; eluents: water / acetonitrile, 0.1% formic acid
recorded.endpoint: RP-LC retention time (s)

The following compounds have reported results that may help.
compound	meas.value
COc1ccccc1-c1noc(C2CCCN2C(=O)c2ccccn2)n1 (centres undefined)	725
c1ccc2c(c1)CCN(Cc1nc(-c3ccc(N4CCCCCC4)nc3)no1)C2	816
Fc1cc(F)cc(-c2nnc(Cc3nc(-c4ccccc4F)no3)o2)c1	1060
NS(=O)(=O)c1ccc(CNC(=O)c2coc(NC(=O)c3cnccn3)n2)cc1	560
CC(=O)N1CCc2cc(C)c(S(=O)(=O)NCC3CCCO3)cc21 (centres undefined)	691
CCOCCCNC(=O)N1CC(Oc2ccc(-c3nc(C)no3)cc2)C1	724
O=C(Nc1ccccc1)N1CCC(n2cnc3cc(F)ccc3c2=O)CC1	742
O=C(Cn1nc2c3cc(F)ccc3ncn2c1=O)Nc1ccccc1F	656
COc1ccc(-n2cc(C(=O)Nc3cnc4ccccc4c3)nn2)cc1	821
COc1cc([C@@H]2c3cc4c(cc3[C@H](O)[C@@H](CO)[C@@H]2C(=O)Nc2cccc(F)c2)OCO4)cc(OC)c1OC	761

[1] Cn1ccc2cc(S(=O)(=O)N3CCCC(C(=O)NCCCN4CCOCC4)C3)ccc21 (centres undefined)
[2] O=C(Nc1ccc(Cl)cc1)c1oc2ccccc2c1NC(=O)C1CC1
For the pair 1 and 2 , which entry has the numerically smaller recorded RP-LC retention time? // return label of chosen record
1

[I] COc1cccc(C(=O)N2CCN(c3cc(-c4cccs4)[nH]n3)CC2)c1OC
[II] Cc1ccc(N2CC(c3noc(-c4ccc(Cl)cc4)n3)CC2=O)cc1 (centres undefined)
For the pair I and II , which entry has the numerically smaller recorded RP-LC retention time? // return label of chosen record
I
(I: 722 s, II: 1110 s)

Source: the METLIN SMRT retention time set (Domingo-Almenara et al. 2019)
